Values from patent US11168087B2

system: glucocerebrosidase (Gcase) (Homo sapiens, UniProt P04062)
Construct: micellar solution containing 10 nM GCase and 100 nM saposin C
Sequence (P04062 40-536): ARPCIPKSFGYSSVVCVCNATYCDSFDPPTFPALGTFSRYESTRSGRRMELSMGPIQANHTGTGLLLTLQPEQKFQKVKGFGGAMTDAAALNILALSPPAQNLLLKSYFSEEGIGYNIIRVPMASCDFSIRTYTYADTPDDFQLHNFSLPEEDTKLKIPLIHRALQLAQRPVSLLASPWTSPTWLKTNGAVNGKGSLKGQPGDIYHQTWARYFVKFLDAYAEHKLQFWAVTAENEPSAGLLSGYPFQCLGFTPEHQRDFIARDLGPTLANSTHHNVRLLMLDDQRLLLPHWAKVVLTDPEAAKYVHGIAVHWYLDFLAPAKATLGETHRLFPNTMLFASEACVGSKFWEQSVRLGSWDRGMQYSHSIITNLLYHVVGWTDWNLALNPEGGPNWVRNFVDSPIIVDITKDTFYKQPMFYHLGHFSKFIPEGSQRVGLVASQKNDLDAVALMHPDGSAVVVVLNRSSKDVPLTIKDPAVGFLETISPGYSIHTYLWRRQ
testSummary: Glucocerebrosidase (Gcase) activation assay, 4-methylumbelliferyl-beta-D-glucopyranoside substrate, with saposin C
Type: biochemical
conditionDetails: 0.25 h; read-out: Percent Gcase Activation 0.1 μM Test Compound
Catalogue of activation at 0.1 µM values
propertyName: activation at 0.1 µM

> print(dat)
                                    compound                                    system          propertyname  endpointvalue
 1  Cc1cc(C)c2occ(C(=O)NC3CCCc4ccccc43)c2n1 (centres unmarked)  glucocerebrosidase (Gcase) (Homo sapiens, UniProt P04062)  activation at 0.1 µM          > 20%
 2  Cc1cc(-c2cc(C)c3ncc(C(=O)N[C@H](C4CC4)C(F)(F)F)n3n2)sn1  glucocerebrosidase (Gcase) (Homo sapiens, UniProt P04062)  activation at 0.1 µM          > 20%
 3  Cc1cc(-c2cncc(Cl)c2)nn2c(C(=O)N[C@@H](C3CC3)C(F)(F)F)ncc12  glucocerebrosidase (Gcase) (Homo sapiens, UniProt P04062)  activation at 0.1 µM       5 to 20%
 4  Cc1cc(-c2cc(C)c3ncc(C(=O)N[C@@H](C4CC4)C(F)(F)F)n3n2)sn1  glucocerebrosidase (Gcase) (Homo sapiens, UniProt P04062)  activation at 0.1 µM       5 to 20%
 5  CCCCCCOC1CCC(NC(=O)c2cnc3c(C)cc(Cl)nn23)CC1 (centres unmarked)  glucocerebrosidase (Gcase) (Homo sapiens, UniProt P04062)  activation at 0.1 µM       5 to 20%
 6  Cc1cc(-c2ccc3c(c2)ncn3C)nn2c(C(=O)N[C@@H](C3CC3)C(F)(F)F)cnc12  glucocerebrosidase (Gcase) (Homo sapiens, UniProt P04062)  activation at 0.1 µM       5 to 20%
 7  Cc1cc(-c2ccc(F)cc2C#N)nn2c(C(=O)N[C@@H](C)C(F)(F)F)cnc12  glucocerebrosidase (Gcase) (Homo sapiens, UniProt P04062)  activation at 0.1 µM       5 to 20%
 8  CCC(NC(=O)c1cnc2c(C)cc(C)nn12)c1ccccc1 (centres unmarked)  glucocerebrosidase (Gcase) (Homo sapiens, UniProt P04062)  activation at 0.1 µM           < 5%
 9  Cc1cc(-c2cccc3ocnc23)nc2c(C(=O)NC(C3CC3)C(F)(F)F)nsc12 (centres unmarked)  glucocerebrosidase (Gcase) (Homo sapiens, UniProt P04062)  activation at 0.1 µM           < 5%
10  Cc1cc(-c2ccc(F)cc2)nn2c(C(=O)N[C@@H](C)C3CC3)nnc12  glucocerebrosidase (Gcase) (Homo sapiens, UniProt P04062)  activation at 0.1 µM           < 5%
11  Cc1cc(-c2cccc(Cl)n2)nn2c(C(=O)NC(C)C(F)(F)F)cnc12 (centres unmarked)  glucocerebrosidase (Gcase) (Homo sapiens, UniProt P04062)  activation at 0.1 µM       5 to 20%
12  Cc1cc(-c2sccc2C#N)nn2c(C(=O)N[C@H](C3CC3)C(F)(F)F)cnc12  glucocerebrosidase (Gcase) (Homo sapiens, UniProt P04062)  activation at 0.1 µM          > 20%
13  Cc1cc(Cl)nn2c(C(=O)Nc3ccc4c(c3)CCC4)cnc12  glucocerebrosidase (Gcase) (Homo sapiens, UniProt P04062)  activation at 0.1 µM       5 to 20%
14  Cc1cc(C)c2cnc(C(=O)Nc3ccc4c(c3)CCC4)n2n1  glucocerebrosidase (Gcase) (Homo sapiens, UniProt P04062)  activation at 0.1 µM          > 20%
15  Cc1cc(-c2ccc(F)cc2C#N)nn2c(C(=O)N[C@H](C)C(F)(F)F)cnc12  glucocerebrosidase (Gcase) (Homo sapiens, UniProt P04062)  activation at 0.1 µM           < 5%
16  Cc1cc(C)c2ncc(C(=O)NC(C3CC3)C(F)(F)F)n2n1 (centres unmarked)  glucocerebrosidase (Gcase) (Homo sapiens, UniProt P04062)  activation at 0.1 µM           < 5%
17  Cc1cc(C)c2ncc(C(=O)Nc3ccc(-c4cocn4)cc3)n2n1  glucocerebrosidase (Gcase) (Homo sapiens, UniProt P04062)  activation at 0.1 µM           < 5%

----------
system: glucocerebrosidase (Gcase) (Homo sapiens)
Construct: micellar solution containing 10 nM GCase and 100 nM saposin C
testSummary: Glucocerebrosidase (Gcase) activation assay, 4-methylumbelliferyl-beta-D-glucopyranoside substrate, with saposin C
Type: biochemical
conditionDetails: 0.25 h; read-out: Percent Gcase Activation 0.1 μM Test Compound
propertyName: activation at 0.1 µM

> print(dat)
                                    compound  endpointvalue
 1  Cc1cc(-c2ccc(F)cc2)nn2c(C(=O)NC(C)(C)C3CC3)cnc12       5 to 20%
 2  Cc1cc(-c2occc2C#N)nn2c(C(=O)NC(C3CC3)C(F)(F)F)cnc12 (stereo not drawn)          > 20%
 3  Cc1cc(-c2cccc(F)c2)nn2c(C(=O)N[C@@H](C3CC3)C(F)(F)F)ncc12          > 20%
 4  Cc1cc(C)c2onc(C(=O)NC3CCCc4ccccc43)c2n1 (stereo not drawn)       5 to 20%
 5  Cc1cc(C#N)c(-c2cc(C)c3ncc(C(=O)N[C@H](C)C(F)(F)F)n3n2)o1       5 to 20%
 6  Cc1cc(-c2ccc3ocnc3c2)nn2c(C(=O)N[C@H](C3CC3)C(F)(F)F)cnc12          > 20%
 7      C#Cc1ccc(NC(=O)c2cnc3ccc(Cl)nn23)cc1       5 to 20%
 8  COc1cccc(-c2cc(C)c3snc(C(=O)N[C@@H](C)C4CC4)c3n2)n1           < 5%
 9  Cc1cc(-c2cccnc2)nc2c(C(=O)NC(C)C3CC3)csc12 (stereo not drawn)          > 20%
10  CCC(NC(=O)c1nsc2c(C)cc(C)nc12)c1ccccc1 (stereo not drawn)       5 to 20%
11  COc1cccc(-c2cc(C)c3ncc(C(=O)NC(C4CC4)C(F)(F)F)n3n2)n1 (stereo not drawn)          > 20%
12  Cc1cncc(-c2cc(C)c3ncc(C(=O)N[C@H](C4CC4)C(F)(F)F)n3n2)c1       5 to 20%
13  Cc1cc(-c2cccc(C#N)c2)nn2c(C(=O)NC(C3CC3)C(F)(F)F)cnc12 (stereo not drawn)          > 20%
14     Cc1cc(C)c2ncc(C(=O)NC(C)(C)C3CC3)n2n1       5 to 20%
15  Cc1cc(-c2cncc(F)c2)nn2c(C(=O)NC(C3CC3)C(F)(F)F)cnc12 (stereo not drawn)       5 to 20%
